Tested on: glycogen synthase kinase-3 (GSK3A per assay name; protocol says GSK3B)
Assay: GSK3 binders on small-molecule microarrays, primary screen, biochemical, small-molecule microarray, 635 nm fluorescence, GSK3A (AID 1103); further: the record names both GSK3A and GSK3B
Conditions: small-molecule microarray binding, fluorescence 635 nm; higher = more signal
test_readout: composite z-score

1. COC(=O)[C@@]1(Cc2ccc(F)cc2)[C@H]2c3cc(C(=O)N(C)C)n(CCc4ccc(O)c(OC)c4)c3C[C@H]2CN1C(=O)c1ccccc1    0.776
2. COC(=O)c1c2oc(c1C(=O)OC)C(=O)N(Cc1ccccc1)Cc1cn(nn1)C[C@H](Cc1ccccc1)NC(=O)N[C@H](CO)CC2    0.278
3. COc1ccc(CCNC(=O)[C@@]2(Sc3ccc(C)cc3)CC(=O)N(C3Cc4ccccc4C3)[C@@H]2c2ccc(CO)cc2)cc1    1.27
4. COCCCNC(=O)[C@@]1(Cc2ccccc2N=[N+]=[N-])N=C(c2ccc(OCCCO)cc2)O[C@H]1c1ccccc1    1.28
5. CCOC(=O)C1=CC[C@@H](c2ccc(OCc3ccccc3)c(OC)c2)N(S(=O)(=O)c2ccc(C)cc2)[C@H]1c1ccc(SC)cc1    0.587
6. [N-]=[N+]=Nc1ccccc1C[C@]1(C(=O)N2CCOCC2)N=C(c2ccc(OCCCO)cc2)O[C@H]1c1ccccc1    1.29
7. C[C@]1(C(=O)NC2CC2)c2ccccc2C(=O)N(Cc2ccccc2)[C@H]1c1ccc(CO)cc1    -0.84
8. CC(C)Cc1ccc(CN2CC[C@@H](NC(=O)Nc3ccccc3)C2)cc1    -0.274
9. C=CCN1C(=O)[C@@]2(O[C@@H](CCn3cc([C@H](O)c4ccccc4)nn3)[C@H]([Si](C)(C)c3ccc(OC)cc3)[C@H]2C)c2cc(N3CCC3=O)ccc21    -0.0371
10. COc1ccc(NC(=O)O[C@H]2[C@H](OC(=O)Nc3ccccc3)[C@H](OC(=O)Nc3ccccc3)[C@@H](OC)O[C@@H]2CO)cc1    1.07
11. CN1C(=O)C2C=CC(C(O)C#Cc3ccccc3)N(Nc3ccccc3)C2C1=O (stereo unspecified)    1.31
12. CCCCCCc1nc(C2CC2)cc2c1[Si](C(C)C)(C(C)C)OC2    -0.461
13. O[C@@H](Cc1ccccc1)[C@@H](/C=C/C1CC1)N(CC#Cc1ccccc1)Cc1cccc(Cl)c1    -1.01
14. CCCCC(=C=CC[C@@H](O)c1ccccc1OCCO)C[C@@H](O)COCc1ccccc1    -0.158
15. CN1C(=O)C2C=CC(C(O)c3cccc4ccccc34)N(N3CCCCC3)C2C1=O (stereo unspecified)    1.31
16. C=CCC(OC(C)=O)[C@@H]1[C@@H](N(Cc2cc3ccccc3o2)C(=O)c2ccc(C)cc2)c2cc(OCCCO)ccc2N1C(=O)Cc1ccc(OC)cc1 (stereo partly specified)    0.121

====

Target: Carbonic anhydrase 2 (Homo sapiens) (UniProt P00918)
Assay: CAII small-molecule binders, profiling panel, biochemical, small-molecule microarray, Alexa647-labelled CAII (AID 1122)
Conditions: CAII-A647 binding fluorescence, higher = more signal
test_readout: composite z-score

1) O=C1OCC=C[C@H]2OC34C=CCN(Cc5ccccc5)C(=O)[C@H]3N(CCCCCCO)C(=O)[C@@H]4[C@@H]12 (stereo partly drawn)    0.914
2) COC(=O)[C@@]1(Cc2ccccc2)[C@H]2c3cc(C(=O)N(C)C)n(CCN4CNCC4=O)c3C[C@H]2CN1C(=O)c1ccccc1    0.826
3) NC(=O)N1C(=O)C2C(C1=O)C1C=C(CCCO)C2C(c2cccs2)N1Cc1cccc(OC(F)(F)F)c1 (stereo not drawn)    0.583
4) C[N+](C)(C)CCCCCCNC(=O)[C@H]1C[C@H]2C(=O)NCC(=O)N2[C@H]1c1ccc(O)cc1    0.422
5) O=C(NCc1ccccc1)[C@@H]1c2ccccc2C(=O)N(Cc2ccccc2C(F)(F)F)[C@H]1c1ccc(CO)cc1    0.759
6) COC(=O)[C@@]1(Cc2ccc(OC)cc2)[C@H]2c3cc(C(=O)N4CCCC4)n(Cc4c(-c5ccccc5)noc4C)c3C[C@H]2CN1C(=O)c1ccccc1    0.446
7) COC(=O)C1=CC(CCCO)=CC(C2CC2)N(C)C=C1C(=O)OC (stereo not drawn)    0.97
8) CC(C)(C)OC(=O)CC[C@]1(C(=O)NCc2ccccc2)N=C(c2ccc(OCCCO)cc2)O[C@H]1c1ccccc1CN=[N+]=[N-]    0.68

====

Test: binders of probe aFST on microarray, primary screen, stem cell growth factor project, biochemical, small-molecule microarray, fluorescence 635/667 (AID 1086);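 further: score merges 667 nm fluorescence with signal-to-noise of each printed compound spot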
Conditions: higher = more signal
test_readout: composite z-score

1) O=C1C2C=CC(C(O)c3ccc(F)cc3)N(n3cnnc3)C2C(=O)N1Cc1ccccc1 (stereo unspecified)    0.19
2) COCCCNC(=O)[C@]1(CCS(=O)(=O)c2ccccc2)N=C(c2ccc(OCCCO)cc2)O[C@@H]1c1ccccc1N=[N+]=[N-]    1.98
3) COC(=O)[C@H](Cc1ccccc1)N1CC(/C=C/C2CC2)=C[C@H]1[C@H](O)Cc1ccccc1    0.101
4) CCCNC(=O)[C@@]1(c2ccc([N+](=O)[O-])cc2)CC(=O)N(C2CCCCC2)[C@@H]1c1ccc(CO)cc1    0.565
5) COC(=O)[C@@]1(Cc2ccccc2)[C@@H]2C(=CC(=O)[C@H]2CC(=O)C(=O)N(C)C)CN1C(=O)c1ccccc1    0.962
6) C=CC[C@]1(C(=O)O)COC(c2ccc(OCCCO)cc2)=N1    0.403
7) COC(=O)C(CC#Cc1ccc2c(c1)[C@]1(C(=O)N2)[C@H](c2ccccc2OCCO)N2[C@H](c3ccccc3)[C@H](c3ccccc3)OC(=O)[C@H]2[C@@H]1C(=O)NC[C@H](O)c1ccccc1)C(=O)OC    -0.158
8) COC(=O)[C@@]1(Cc2ccccc2)[C@H]2c3cc(C(=O)N(C)C)n(CCN4CNCC4=O)c3C[C@H]2CN1C(=O)c1ccccc1    2
9) O=C1OCC=C[C@H]2OC34C=CCN(c5ccc(Cl)cc5)C(=O)[C@H]3N(CCO)C(=O)[C@@H]4[C@@H]12 (stereo partly specified)    -0.915
10) Cc1cc(C)cc(N2C(=O)CSC2c2cccc([N+](=O)[O-])c2)c1 (stereo unspecified)    0.712
11) Cc1ccc(S[C@]2(C(=O)NCCCN(C)C)CC(=O)N(C3CCCCC3)[C@@H]2c2ccc(CO)cc2)cc1    -0.249
12) CC(C)C[C@@H]1NC(=O)[C@@H]2C[C@H](C(=O)NCCCCN(C)C)[C@H](c3cccc(OCCO)c3)N2C1=O    -0.612
13) COc1ccc([Si](C)(C)[C@@H]2[C@@H](CC(=O)N3Cc4ccccc4C[C@H]3CO)O[C@]3(C(=O)N(Cc4cccc(N5C(=O)c6cccc7cccc5c67)c4)c4ccccc43)[C@H]2C)cc1    0.593
14) NC(=O)N1C(=O)C2C(C1=O)C1C=C(CCCO)C2C(c2cccs2)N1Cc1cccc(OC(F)(F)F)c1 (stereo unspecified)    0.0646
15) CC=CC(O)C1C=CC2C(=O)N(c3ccccc3)C(=O)C2N1Nc1ccccc1F (stereo unspecified)    1.07
16) CC(C)C(=C=CC[C@H](O)c1cccc(OCCO)c1)C[C@H](O)c1cc(Cl)cc(Cl)c1O    0.53
17) CCCNC(=O)[C@@H]1c2ccccc2C(=O)N(C(C)C)[C@H]1c1ccc(CO)cc1    0.103
18) CC(C)Cc1ccc(CN2CC[C@@H](NC(=O)Nc3ccccc3)C2)cc1    -0.275
19) CCCCN1CC=CC23O[C@@H]4/C=C\CCC(C)OC(=O)C4[C@H]2C(=O)N(C(CO)C(C)C)[C@@H]3C1=O (stereo partly specified)    -0.19
20) CCCC[C@@H](O)C1=C(COc2ccccc2)C[C@H]2C(=O)N(C)C(=O)[C@H]2[C@H]1CO    -0.346
21) CN1C(=O)C2C=CC(C(O)COCc3ccccc3)N(N(c3ccccc3)c3ccccc3)C2C1=O (stereo unspecified)    1.1
22) CC(CO)N1C(=O)[C@@H]2[C@H]3C(=O)OCC=C[C@H]3OC23C=CCN(Cc2ccccc2)C(=O)[C@@H]13 (stereo partly specified)    -0.531
23) CC(C)(C)OC(=O)CC[C@]1(C(=O)NCC(O)CO)N=C(c2ccc(OCCCO)cc2)O[C@H]1c1ccccc1 (stereo partly specified)    0.36
24) NCCCCCCNC(=O)[C@@H]1C[C@@H]2C(=O)N[C@@H](CCCCN)C(=O)N2[C@@H]1c1cccc(OCCO)c1    -0.175
25) CN1C(=O)C2C=CC(C(O)c3ccc(F)cc3)N(Nc3ccccc3)C2C1=O (stereo unspecified)    0.862
26) C=CCNC(=O)[C@H]1[C@@H]2C(=O)O[C@@H](c3ccccc3)[C@@H](c3ccccc3)N2[C@@H](c2ccc(O)cc2)[C@]12C(=O)N(C(=O)OCCOC)c1ccccc12    0.303
27) C=CCC(OC(C)=O)[C@@H]1[C@@H](N(Cc2cccc3ccccc23)C(=O)c2cccc3ccccc23)c2cc(OCCCO)ccc2N1C(=O)c1ccc(-c2ccccc2)cc1 (stereo partly specified)    0.234
28) C=C(COC)/C(=C/C[C@H](OC(=O)c1ccncc1)c1ccccc1OCCO)c1cnc2ccccc2c1    1.07
29) COc1ccc(-c2cc3c(c(CCc4ccccc4)n2)[Si](C(C)C)(C(C)C)OC3)cn1    0.21
30) C=C(COC)C(=O)CC[C@@H](OC(=O)c1cccnc1)c1ccc(OCCO)cc1    0.343
31) O=C(NCc1ccccc1)[C@@H]1c2ccccc2C(=O)N(Cc2ccccc2C(F)(F)F)[C@H]1c1ccc(CO)cc1    -0.428

Where these numbers come from: PubChem BioAssay
